# Test system: A498
# TEST_DESCRIPTION: NCI tumour cell line growth inhibition, 48 h
Active and inactive are the calls of the source. No stated cut-off is given here; in the data, active = GI50 up to about 1.1 µM and inactive = higher.
Possible outcomes: active, inactive

> print(dat)
                                    molecule  label.class
 1  CC1=CC(=O)/C(=C/Nc2nc(-c3ccc([N+](=O)[O-])cc3)cs2)C(=O)O1     inactive
 2  CN(C)c1ccc(N2C(=S)SC(=N\c3ccccc3)/C2=N/c2ccccc2)cc1     inactive
 3  COc1ccc(OC)c2sc(N3C(=O)/C(=C/c4ccccc4S)N=C3c3ccccc3)nc12     inactive
 4  COc1cc(C2c3cc4c(cc3[C@@H](Nc3cnc5ccccc5c3)C3COC(=O)[C@H]23)OCO4)cc(OC)c1O (stereo not given in full)       active
 5  CCOC(=O)Oc1ccc(C(CNC(C)C)OC(=O)OCC)cc1OC(=O)OCC (stereo not given)     inactive
 6  O=C(/C(=C\c1ccccc1)CN1CCOCC1)c1ccc(Br)cc1     inactive
 7  CC(C)=CCC[C@@H](C)C1=C(O)C(O)C(C)=C2N=C(c3ccccc3)C(=O)OC21 (stereo not given in full)     inactive
 8  CN(C)C(c1ccccc1)C(O)c1ccccc1 (stereo not given)     inactive
 9  Cc1cc(NC(=O)NC(=O)c2ccccc2N(C)C)ccc1Oc1ncc(Br)cn1       active
10  COc1ccc(C2=C(Cl)c3cc(OC)c(OC)cc3C2OC)cc1OC (stereo not given)     inactive

---

# Tested on: SK-MEL-2
# TEST_DESCRIPTION: NCI tumour cell line growth inhibition, 48 h
The source made the active and inactive calls. Rule as the data show it: active = GI50 up to about 1.1 µM and inactive = higher.
RECORDED_ENDPOINT: GI50

> print(dat)
                                    compound  recorded.endpoint                value
 1  Cc1ccc2c(=O)c3c(O)c4c(cc3n(C)c2c1)OC(C)(C)C=C4               GI50   > 10 µM (inactive)
 2  COC(=O)/C(=N/NC(=O)C[N+](C)(C)C)C(C(=O)OC)C(=O)C(=O)Nc1ccc(F)cc1 (stereo not given)               GI50  > 100 µM (inactive)
 3  S=c1oc(CCCCCCCCc2nn(CNc3ccc(Cl)cc3)c(=S)o2)nn1CNc1ccc(Cl)cc1               GI50  > 100 µM (inactive)
 4                    COC1=CC(=O)C=C(OC)C1=O               GI50   6.55 µM (inactive)
 5  COC(=O)Cc1c(C2=Nc3ccccc3C2(O)CC(=O)OC)[nH]c2ccccc12 (stereo not given)               GI50  > 100 µM (inactive)
 6  CC(=O)C(C(=O)C(=O)Nc1cc(Cl)c(Cl)cc1Cl)c1csc(N)n1 (stereo not given)               GI50  > 100 µM (inactive)
 7  NC(=S)NN=Cc1ccccc1OCc1cccc(COc2ccccc2C=NNC(N)=S)n1               GI50   6.89 µM (inactive)
 8        c1cc2nnc1SCCSCCSc1ccc(nn1)SCCSCCS2               GI50  > 100 µM (inactive)
 9  O=C(O)C1(Cc2ccc3c(c2)CCC3)Cc2ccccc2C1=O (stereo not given)               GI50     46 µM (inactive)
10                O=C(CCC(=O)c1ccc(Cl)cc1)NO               GI50  > 100 µM (inactive)
